Subject Of Test: IRAK-4 (Homo sapiens, UniProt Q9NWZ3)
Sequence (Q9NWZ3 whole entry): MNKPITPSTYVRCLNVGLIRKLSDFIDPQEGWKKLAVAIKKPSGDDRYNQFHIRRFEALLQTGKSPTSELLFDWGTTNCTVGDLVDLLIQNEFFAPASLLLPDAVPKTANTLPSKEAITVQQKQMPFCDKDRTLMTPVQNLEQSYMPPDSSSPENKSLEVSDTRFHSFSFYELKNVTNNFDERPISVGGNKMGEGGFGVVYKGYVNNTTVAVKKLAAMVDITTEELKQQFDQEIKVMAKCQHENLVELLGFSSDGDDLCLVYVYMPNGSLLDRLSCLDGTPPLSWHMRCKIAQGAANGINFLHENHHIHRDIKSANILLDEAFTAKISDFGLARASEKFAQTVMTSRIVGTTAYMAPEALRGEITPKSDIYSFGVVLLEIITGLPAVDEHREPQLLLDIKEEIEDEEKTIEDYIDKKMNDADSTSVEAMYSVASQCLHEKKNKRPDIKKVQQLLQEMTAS
Assay Method Text: IRAK-4 ELISA, PBMC degradation
Format: cell-based
Parameters: endogenous in cells; host or cells: PBMC
Condition Context: treated overnight
Assay Metric: Dmax

| Compound | Recorded Measurement |
| --- | --- |
| CC(C)Oc1cc2c(cc1NC(=O)c1cnn3cccnc13)CN([C@H]1CC[C@H](N3CC4(CN(c5ccc6c(c5)C(=O)N(C5CCC(=O)NC5=O)C6=O)C4)C3)CC1)C2=O (some centres unmarked) | ≥ 90% |
| Cc1cnc2c(C(=O)Nc3cc4c(cc3OC(C)C)C(=O)N(C3CCN(CC5CCN(c6ccc7c(c6)C(=O)N(C6CCC(=O)NC6=O)C7=O)CC5)CC3)C4)cnn2c1 (centres unmarked) | ≥ 90% |
| O=C1CCC(N2C(=O)c3ccc(N4CCC[C@H](CN5CCC(n6cc7cc(NC(=O)c8cnn9cccnc89)c(OCC8CC8)cc7n6)CC5)C4)cc3C2=O)C(=O)N1 (some centres unmarked) | ≥ 90% |
| CC(C)Oc1cc2c(cc1NC(=O)c1cnn3cccnc13)CN([C@H]1CCN(CC3CCN(c4ccc5c(c4)C(=O)N(C4CCC(=O)NC4=O)C5=O)CC3)C[C@@H]1F)C2=O (some centres unmarked) | ≥ 90% |
| CN(CC1CCN(c2ccc3c(c2)C(=O)N(C2CCC(=O)NC2=O)C3=O)CC1)[C@H]1CC[C@H](n2cc3cc(NC(=O)c4cnn5cccnc45)c(OCC4CC4)cc3n2)CC1 (some centres unmarked) | 80 to 90% |
